# System: HepaRG
# test.details: LDH release cytotoxicity, % of total lysis control; higher = more cytotoxic
# condition.description: 1 µM; 48 h
Reported LDH release cytotoxicity values follow for various compounds
reported.endpoint: LDH release cytotoxicity (%)

{"columns": ["compound", "reported.endpoint", "recorded.result"],
 "data": [
  ["CCC1CC(N(Cc2cc(C(F)(F)F)cc(C(F)(F)F)c2)C(C)=O)c2cc(C(F)(F)F)ccc2N1C(=O)OC(C)C (stereo not drawn)", "LDH release cytotoxicity", -0.248],
  ["CC(C)c1cccc(C(C)C)c1N1C(=O)c2ccc(O)cc2C1=O [2-(2,6-Diisopropylphenyl)-5-hydroxy-1H-isoindole-1,3-dione]", "LDH release cytotoxicity", -0.99],
  ["N=C(Nc1ccccc1)Nc1ccccc1 [1,3-Diphenylguanidine]", "LDH release cytotoxicity", -1.87],
  ["NCCOCCOCCN [2,2'-[Ethane-1,2-diylbis(oxy)]diethanamine]", "LDH release cytotoxicity", 0.303],
  ["CC(Oc1ccc(CNC(=O)c2cccnc2Oc2ccc3c(c2)OCO3)c(F)c1)C(=O)O (stereo not drawn)", "LDH release cytotoxicity", -1.35],
  ["CCCCOC(=O)c1ccccc1C(=O)OCc1ccccc1 [Benzyl butyl phthalate]", "LDH release cytotoxicity", -1.14],
  ["Clc1cc(Cl)c(Cl)cc1Cl [1,2,4,5-Tetrachlorobenzene]", "LDH release cytotoxicity", -1.08],
  ["CN1CCN(Cc2cc(-c3ccc4nc(O)oc4c3)co2)C(c2ccc(F)cc2)C1 (stereo not drawn) [AVE8488]", "LDH release cytotoxicity", -0.702],
  ["Cc1ccc(N)cc1O [5-Amino-2-methylphenol]", "LDH release cytotoxicity", -1.04],
  ["S=C(S)NCCNC(=S)S [Maneb]", "LDH release cytotoxicity", -4.15],
  ["Cc1cccc(C)c1O [2,6-Dimethylphenol]", "LDH release cytotoxicity", -1.91],
  ["O=C(Nc1ccc([N+](=O)[O-])cc1Cl)c1cc(Cl)ccc1O [5-Chloro-N-(2-chloro-4-nitrophenyl)-2-hydroxybenzamide]", "LDH release cytotoxicity", -0.00174],
  ["Nc1cccc2c(N)cccc12 [1,5-Naphthalenediamine]", "LDH release cytotoxicity", -2.39],
  ["Nc1cc(Cl)cc(C(=O)O)c1Cl [Chloramben]", "LDH release cytotoxicity", -0.882],
  ["Clc1cccc(Cl)c1Cl [1,2,3-Trichlorobenzene]", "LDH release cytotoxicity", -2.67],
  ["C[N+]1(C)CCCCC1 [1,1-Dimethylpiperidinium chloride]", "LDH release cytotoxicity", -1.35],
  ["CCN(CC)c1nc(C)cc(OP(=S)(OC)OC)n1 [Pirimiphos-methyl]", "LDH release cytotoxicity", -0.906],
  ["O=C1c2c(O)cccc2Cc2cccc(O)c21 [Anthralin]", "LDH release cytotoxicity", -0.891],
  ["CN(C)C(=S)[S-].CN(C)C(=S)[S-].[Zn+2] [Ziram]", "LDH release cytotoxicity", -1.52],
  ["CC(C)(C)c1ccccc1O [2-tert-Butylphenol]", "LDH release cytotoxicity", -1.31],
  ["CCn1nc(Cc2ccccc2)cc1C1CCN(CC2CC(N(C)C(C(=O)O)C(C)C)CC2c2cccc(F)c2)CC1 (stereo not drawn) [MK-578]", "LDH release cytotoxicity", -2.17],
  ["CCCCCOC(=O)COc1cc(N2C(=O)C3=C(CCCC3)C2=O)c(F)cc1Cl [Flumiclorac-pentyl]", "LDH release cytotoxicity", -1.17],
  ["CC1(C)C(C=C(Cl)Cl)C1C(=O)OC(C#N)c1cccc(Oc2ccccc2)c1 (stereo not drawn) [Cypermethrin]", "LDH release cytotoxicity", -2.15],
  ["N#Cc1c(Cl)c(Cl)c(Cl)c(C#N)c1Cl [Chlorothalonil]", "LDH release cytotoxicity", -2.72],
  ["CCOCN(C(=O)CCl)c1c(C)cccc1CC [Acetochlor]", "LDH release cytotoxicity", -0.999],
  ["CCCCC(C#N)(Cn1cncn1)c1ccc(Cl)cc1 (stereo not drawn) [Myclobutanil]", "LDH release cytotoxicity", -0.556],
  ["OCCOCCO [Diethylene glycol]", "LDH release cytotoxicity", -0.601],
  ["Cc1cn(C2C=CC(CO)O2)c(=O)[nH]c1=O (stereo not drawn) [Stavudine]", "LDH release cytotoxicity", 0.024],
  ["O=C(O)c1nc(Cl)ccc1Cl [Clopyralid]", "LDH release cytotoxicity", -1.03],
  ["CCCCCCCCCCC [Undecane]", "LDH release cytotoxicity", -2.3],
  ["CNCc1cc(F)ccc1Oc1ccc(Cl)c(Cl)c1", "LDH release cytotoxicity", -10.4],
  ["N#CC(Br)Br [Dibromoacetonitrile]", "LDH release cytotoxicity", -2.98],
  ["COc1cc2c(c(OC)c1OC)-c1ccc(OC)c(=O)cc1C(NC(C)=O)CC2 (stereo not drawn) [Colchicine]", "LDH release cytotoxicity", 10.1],
  ["N[C@@H](Cc1c[nH]c2ccccc12)C(=O)O [L-Tryptophan]", "LDH release cytotoxicity", -1.86],
  ["Oc1ccc(C(c2ccc(O)cc2)(C(F)(F)F)C(F)(F)F)cc1 [Bisphenol AF]", "LDH release cytotoxicity", -1.45],
  ["CC(CO)OC(C)CO.CC(O)COCC(C)O (stereo not drawn) [Dipropylene glycol]", "LDH release cytotoxicity", -2.46],
  ["COc1ccc(C(=CC(=O)N2CCOCC2)c2ccc(Cl)cc2)cc1OC [Dimethomorph]", "LDH release cytotoxicity", -1.1],
  ["Cc1c(C)c2c(c(C)c1O)CCC(C)(COc1ccc(CC3SC(=O)NC3=O)cc1)O2 (stereo not drawn) [Troglitazone]", "LDH release cytotoxicity", -0.379]
]}
